The measurements presented in this section are drawn from PubChem BioAssay (Tox21).

PROCEDURE_SUMMARY: p53 small molecule agonists, cell-based qHTS assay with human liver microsomes (AID 1963577);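 note: p53 response element beta-lactamase reporter cells with liver microsomes plus NADPH; % is set by controls: 0 for no effect and ±100 for the full control effect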
CONDITION_LABEL: HCT-116 p53RE-bla with human liver microsomes, ratio, 16 h; series mostly up to 66 µM
Text: National Center for Advancing Translational Sciences [NCATS] Division of Preclinical Innovation [DPI] U.S. Environmental Protection Agency [EPA] National Institutes of Environmental Health Sciences [NIEHS] National Toxicology Program [NTP] U.S. Food and Drug Administration [FDA] p53, a tumor suppressor protein, is activated following cellular insult, including DNA damage and other cellular stresses. […] The activation of the reporter gene under culture conditions can be detected by fluorescence intensity. […]
Inconclusive results are not listed. Activity calls are given as the source filed them. Calls come from the whole dose curve.

COMPOUND: Cc1cc2nc3c(=O)[nH]c(=O)nc-3n(C[C@H](O)[C@H](O)[C@H](O)CO)c2cc1C
activation: -6.49% [at 13.5 µM] (inactive)

COMPOUND: O=C(O)CN(CCN(CC(=O)O)CC(=O)O)CC(=O)O
activation: -9.46% [at 2.33 µM] (inactive)

COMPOUND: Nc1ccc(F)cc1F
activation: inactive

COMPOUND: COc1ccccc1OCCNCC(O)COc1cccc2[nH]c3ccccc3c12 (configuration not stated)
activation: inactive

COMPOUND: C=CC(=O)OCCn1c(=O)n(CCOC(=O)C=C)c(=O)n(CCOC(=O)C=C)c1=O
activation: inactive

COMPOUND: CCCCCOC(=O)CCCCC
activation: inactive

COMPOUND: O=[N+]([O-])c1ccc(NCCO)c(OCCO)c1
activation: inactive

COMPOUND: Nc1cccc([N+](=O)[O-])c1
activation: inactive

COMPOUND: Nc1ccc([N+](=O)[O-])cc1O
activation: inactive

COMPOUND: CCCCC(CC)COP(=O)(O)O (configuration not stated)
activation: inactive

COMPOUND: CC(COc1ccc(C(C)(C)C)cc1)OS(=O)OCCCl (configuration not stated)
activation: inactive

COMPOUND: COc1nc(N)nc2c1ncn2[C@@H]1O[C@H](CO)[C@@H](O)[C@@H]1O
activation: inactive
